- EXPERIMENTAL TARGET: recombinant human GST-Syk (Homo sapiens (Human))
- ASSAY TEXT: Homogeneous Time-Resolved Fluorescence (HTRF) Assay for the Recombinant Human Syk Enzyme
- Format: biochemical
- RECORDED CONDITIONS: recombinant human GST-Syk 5 pM, ATP 25 μM; read-out: rhSyk Activity (IC50)
Where a name gives a salt, the structure may show the parent alone.
Reported IC50 values are given for each entry in this list.

Consider the following illustrative entries.
MOLECULE	IC50
Cc1cc(Nc2nccc(C)n2)cc(-c2cnc(CC3(O)CCC(C(=O)OC(C)(C)C)CC3)s2)c1 (single isomer, unassigned) [Example 5, Step 3 (cis isomer)]	0.1 to 1 µM
Cc1cc(Nc2nccc(C(F)(F)F)n2)cc(-c2cnc(C(N)[C@H]3CC[C@H](C(=O)O)CC3)s2)c1 (stereo partly shown) [Example 2-112]	≤ 0.1 µM
Cc1cc(Nc2nccc(C(F)F)n2)cc(-c2cnc(C(C)(O)[C@H]3CC[C@H](C(=O)O)CC3)s2)c1Br (stereo partly shown) [Example 8-1]	≤ 0.1 µM

For the next question, use this molecule.
Task item: Please indicate recorded IC50 of Cc1cc(Nc2nccc(C(F)(F)F)n2)cc(-c2cnc(C(C)(O)[C@H]3CC[C@H](c4nn[nH]n4)CC3)s2)c1 (single isomer, unassigned) [Example 6 (slower eluting enantiomer), trifluoroacetate] measured with recombinant human GST-Syk (Homo sapiens (Human)).
Reply: ≤ 0.1 µM
